The measured values listed here are drawn from paper PMC5540273.

System: AURKC
Details: concentration: 1 μM, replicates: in singlicate; n = 1;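 also: KINOMEscan kinase panel screen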
Please provide measured %Inh for the entries that follow.
Units required after the number.

Field %Inh (AURKC), entry CCn1c(-c2ccncc2)nc2cnccc21 : 0%

Field %Inh (AURKC), entry Cc1ccc(O)cc1Nc1cc(C(F)(F)F)nc2ccc(-c3ccncc3)cc12 : 5%

Field %Inh (AURKC), entry O=C(Nc1n[nH]c2nc(-c3ccco3)c(Br)cc12)c1ccc(CN2CCCC2)cc1.O=C(O)[C@H](O)[C@@H](O)C(=O)O : 0%

Field %Inh (AURKC), entry O=C(NCCCN1CCCC1=O)c1cnc(NCc2cc(Cl)ccc2Cl)nc1NC1CCNCC1 : 0%

###

Please provide measured %Inh for the entries that follow.
Tested on: EPHA4
Details: concentration: 1 μM, replicates: in singlicate; n = 1
Please respond with the number in % and leave the unit unwritten.

Reported %Inh for CC(C)N1CCC(n2cnc(-c3ccc(F)cc3)c2-c2ccnc(N)n2)CC1 was 0

Reported %Inh for CCC(CC)(CC)n1cnc2c(N)ncnc21 was 15

Reported %Inh for O=C(Nc1n[nH]c2nc(-c3ccco3)c(Br)cc12)c1ccc(CN2CCCC2)cc1.O=C(O)[C@H](O)[C@@H](O)C(=O)O was 100

Reported %Inh for c1ccc(-c2ccc3c(-c4ccnc(Nc5ccc6c(c5)OCCO6)n4)cnn3n2)cc1 was 21

###

Test system: PHKG2
Conditions: concentration: 1 μM, replicates: in singlicate; n = 1
Please provide measured %Inh for the entries that follow.
Units required after the number.

Reported %Inh for Nc1nc(-c2ccc3c(N)n[nH]c3c2)cc(N2CCCCC2)n1 was 0%

Reported %Inh for O=C(Nc1ccccc1F)NC1CCN(c2ccnc(Nc3ccc(F)cc3)n2)C1 (centres unmarked) was 0%

Reported %Inh for NC(=O)c1sc(-n2cnc3ccccc32)cc1OCc1ccccc1F was 0%

Reported %Inh for Nc1nccc2scc(-c3ccc4c(c3)CCN4C(=O)Cc3cc(F)ccc3F)c12 was 0%

Reported %Inh for Cl.c1ccc(Cn2ccc3cc(Nc4ncnc5ccccc45)ccc32)cc1 was 23%

###

Test system: MLK2
Conditions: concentration: 1 μM, replicates: in singlicate; n = 1
Readout kind: %Inh
Units required after the number.

Reported %Inh for Cl.Cl.c1ccc(-c2cc3ccncc3cc2OC2CCNCC2)cc1 [GSK1122999] was 0%

Reported %Inh for Cc1ccc(O)cc1Nc1cc(C(F)(F)F)nc2ccc(-c3ccncc3)cc12 [GW630823] was 2%

Reported %Inh for CNc1nccc(-c2c(-c3ccc(F)cc3)ncn2C2CCN(C)CC2)n1 [SB-222903] was 31%

Reported %Inh for Fc1ccc(-c2ncn(CCCNCc3ccccc3)c2-c2ccncc2)cc1 was 0%

Reported %Inh for Fc1ccc(Nc2nccc(-c3c(-c4ccc(Cl)cc4)nn4ncccc34)n2)cc1F [GW829058] was 12%

###

Test system: EPHB4
Settings: concentration: 1 μM, replicates: in singlicate; n = 1
Readout kind: %Inh (%)
Please respond with the number in % and leave the unit unwritten.

Field %Inh (EPHB4), entry CC(=O)Nc1n[nH]c2ncc(-c3ccccc3)cc12 [SB-548492] : 14

Field %Inh (EPHB4), entry Cn1ccc2ncnc(Nc3ccc(Oc4cccc(Cl)c4)c(Cl)c3)c21 : 0

Field %Inh (EPHB4), entry CS(=O)(=O)CCNCc1nc(-c2ccc3ncnc(Nc4ccc(OCc5cccc(F)c5)c(Cl)c4)c3c2)cs1.Cl [GW583340] : 5

Field %Inh (EPHB4), entry Cl.O=S(=O)(c1cccc(F)c1)c1ccc(Nc2ncnc3cc(Br)sc23)cc1Cl [GSK306886] : 17

Field %Inh (EPHB4), entry CS(=O)(=O)CCNCc1ccc(-c2ccc3ncnc(Nc4ccc(OCc5ccccc5)c(Cl)c4)c3c2)o1.Cl [GW574783] : 8

Field %Inh (EPHB4), entry CSc1nn2c(=O)cc(N3CCOCC3)nc2n1Cc1cccc(Cl)c1Cl [GSK2347225] : 11

Field %Inh (EPHB4), entry COC(=O)c1cccc(NC(=O)NCCNc2ccnc(Nc3ccc(F)cc3)n2)c1 [GSK1379883] : 6

Field %Inh (EPHB4), entry CCc1nc(-c2cccc(N(C)S(=O)(=O)c3ccccc3)c2)c(-c2ccnc(Nc3ccc(N4CCN(C(C)=O)CC4)nc3)n2)s1 [GSK1645895] : 0

###

System: CAMK1B
Conditions: concentration: 1 μM, replicates: in singlicate; n = 1
// label = y if %Inh is not less than 7%, otherwise n

Qu. Check the entry CC(C)(C)OC(=O)NC1CCCN(c2cc(-c3ccc4c(N)n[nH]c4c3)nc(N)n2)C1 (stereo not drawn) [GSK2286096] : does %Inh equal or exceed 7%?
Ans. y

Qu. Check the entry c1ccc(-c2ccc3c(-c4ccnc(Nc5ccc6c(c5)OCCO6)n4)cnn3n2)cc1 [GW818941] : does %Inh equal or exceed 7%?
Ans. y

Qu. Check the entry COc1ccc(Nc2nccc(N3CCC(NC(=O)c4cccc(NC(C)=O)c4)C3)n2)cc1 (stereo not drawn) [GSK1379732] : does %Inh equal or exceed 7%?
Ans. y

Qu. Check the entry CC(C)(C)c1ccc(-n2cnc3c(N)ncnc32)cc1 [SKF-97263] : does %Inh equal or exceed 7%?
Ans. y

Qu. Check the entry CC(=O)Nc1n[nH]c2ncc(-c3ccccc3)cc12 [SB-548492] : does %Inh equal or exceed 7%?
Ans. n

Qu. Check the entry Cl.Cl.c1ccc(-c2cc3ccncc3cc2OC2CCNCC2)cc1 [GSK1122999] : does %Inh equal or exceed 7%?
Ans. n

Qu. Check the entry Cl.c1ccc(Cn2ncc3cc(Nc4ncnc5ccccc45)ccc32)cc1 [GW273749] : does %Inh equal or exceed 7%?
Ans. y

Qu. Check the entry Cl.O=S(=O)(c1cccc(F)c1)c1ccc(Nc2ncnc3cc(Br)sc23)cc1Cl [GSK306886] : does %Inh equal or exceed 7%?
Ans. y

###

Test system: YSK1
Construct: gene STK25
Details: concentration: 1 μM, replicates: in singlicate; n = 1
Readout kind: %Inh (%)
Please respond with the number in % and leave the unit unwritten.

Reported %Inh for Cc1cc(N2CCC(NS(=O)(=O)c3ccc(F)cc3)CC2)nc(Nc2cccc(C#N)c2)n1.O=C(O)C(F)(F)F was 22

Reported %Inh for COC(=O)c1c(-c2ccccc2)c2cc(Cl)ccc2c(=O)n1Cc1ccc(S(C)(=O)=O)cc1 was 0

Reported %Inh for COc1ccc(Nc2nccc(N3CCC(NC(=O)c4cccc(NC(C)=O)c4)C3)n2)cc1 (stereo not shown) was 11

Reported %Inh for Fc1cccc(COc2ccc(Nc3ncnc4cc[nH]c34)cc2Cl)c1 was 0

###

Please provide measured %Inh for the entries that follow.
Tested on: RPS6KA5(Kin.Dom.1-N-terminal)
Conditions: concentration: 1 μM, replicates: in singlicate; n = 1
Please respond with the number in % and leave the unit unwritten.

Field %Inh (RPS6KA5(Kin.Dom.1-N-terminal)), entry c1ccc(-c2ccc3c(-c4ccnc(Nc5ccc6c(c5)OCCO6)n4)cnn3n2)cc1 : 10

Field %Inh (RPS6KA5(Kin.Dom.1-N-terminal)), entry Cl.Cn1ccc(-c2cccc(Nc3ccnc4cc(-c5nccs5)ccc34)c2)n1 : 24

Field %Inh (RPS6KA5(Kin.Dom.1-N-terminal)), entry O=C(c1ccc(-c2cc(-c3c[nH]nc3-c3ccccn3)ccn2)cc1)N1CCCC1 : 0

###

Tested on: HPK1
Conditions: concentration: 1 μM, replicates: in singlicate; n = 1
Please provide measured %Inh for the entries that follow.
Please respond with the number in % and leave the unit unwritten.

Reported %Inh for Fc1cccc(COc2ccc(Nc3ncnc4sc(-c5ccc[nH]5)cc34)cc2Cl)c1 [GW707818] was 39

Reported %Inh for CSc1ccc(NC2=C(c3ccccc3Cl)C(=O)NC2=O)cc1 [SB-342411] was 0

Reported %Inh for Cl.c1ccc(Cn2ncc3cc(Nc4ncnc5ccccc45)ccc32)cc1 [GW273749] was 20

Reported %Inh for Nc1n[nH]c2nnc(-c3ccccc3)cc12 [SB-517389] was 35

Reported %Inh for CS(=O)(=O)CCNCc1nc(-c2ccc3ncnc(Nc4ccc(OCc5cccc(F)c5)c(Cl)c4)c3c2)cs1.Cl [GW583340] was 33

Reported %Inh for Nc1nc(-c2ccc3c(N)n[nH]c3c2)cc(N2CCC[C@@H](C(=O)Nc3ccccc3)C2)n1.O=C(O)C(F)(F)F.O=C(O)C(F)(F)F [GSK2288359] was 32

Reported %Inh for COc1cc2ncnc(Nc3ccc(OCc4ccccc4Br)c(Cl)c3)c2cc1OC.Cl [GI261590] was 33

Reported %Inh for Nc1nc(-c2cccnc2)c(-c2ccnc3ccccc23)s1 [GW684083] was 28

###

Test system: STK33
Conditions: concentration: 1 μM, replicates: in singlicate; n = 1
Please provide measured %Inh for the entries that follow.
Please respond with the number in % and leave the unit unwritten.

Reported %Inh for CN1c2ccc(-c3ccc(C(=O)NCCO)cc3)cc2-c2[nH]ncc2S1(=O)=O was 9

Reported %Inh for Nc1nc(-c2ccc3c(N)n[nH]c3c2)cc(N2CCCCC2)n1 [GSK2228768] was 0

Reported %Inh for CCC(CC)(CC)n1cnc2c(N)ncnc21 [SKF-97620] was 0

Reported %Inh for COc1ccc(NC(=O)c2ccc(-c3cc(-c4nnc(C)o4)ccc3C)cc2)cc1 [GW595885] was 0

Reported %Inh for FC(F)(F)c1cc(Nc2nccc(-c3c(-c4ccc(Cl)cc4)nn4ncccc34)n2)ccc1Cl [GW829351] was 0

Reported %Inh for O=c1cc(N2CCOCC2)nc2n(Cc3cccc(Cl)c3)ccn12 [GSK2296823] was 0

Reported %Inh for CC(C)(C)OC(=O)NC1CCCN(c2cc(-c3ccc4c(N)n[nH]c4c3)nc(N)n2)C1 (stereo not drawn) [GSK2286096] was 53

Reported %Inh for Clc1cccc(-c2nc(Nc3ccncc3)c3ccccc3n2)c1 [GW873004] was 26

Reported %Inh for CC(C)(C)c1ccc(-n2cnc3c(N)ncnc32)cc1 [SKF-97263] was 0
